Cited source: paper PMC4072508

Biological target: T1, Mcl-1, Q07820
T1 chain: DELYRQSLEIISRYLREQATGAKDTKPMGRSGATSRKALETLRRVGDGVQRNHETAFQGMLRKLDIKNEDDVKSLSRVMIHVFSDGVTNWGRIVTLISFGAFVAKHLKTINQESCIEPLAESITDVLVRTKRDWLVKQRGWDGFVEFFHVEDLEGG
Experiment: peptide SPOT array, c-Myc-tagged receptor at 1 uM or 100 nM, anti-c-Myc-Cy3
Reported SPOT signal as a fraction of Bim BH3's signal on the same receptor and array by item:
Please state the value as a number alone, without comment.

Examples from the recorded data:
TVATRRLSGFDRTLADRLEGTKELLS [MINA] | 0.28
AIILCNVCGNLCTDLDRFLHLHRRTK [MYCBP2] | 0.51
QDTEQFVATVLQAASRDLDWEVRAQG [C7orf27] | 0.02
FSKREKLVEIDRNIGDERTMVFVETK [DDX4] | 0.07
RIEMWISILELNELLEYAAVELHQAK [KIF13A] | 0.03

# query: SPOT signal as a fraction of Bim BH3's signal on the same receptor and array of entry SVGGRGISSKLDSLADELKFVPIIGI [SACS]
0.02

# query: SPOT signal as a fraction of Bim BH3's signal on the same receptor and array of entry KKLKNLEGNELQRHADEFLLDLGHHE [FUT8]
0.05
